Species on record: Bos taurus
Assay: Activation of actin-stimulated bovine cardiac myosin S1 fragment ATPase activity in sarcomere at 1 uM after 10 mins by spectrophotometric analysis relative to control
Rule: Activity below 30% gives rule met, anything at or above gives rule not met.

Determine if "c1ccc(CCCc2nnc(-c3ccccc3)o2)cc1" shows Activity strictly lower than 30%.
rule not met

Say whether its Activity is strictly beneath 30%. Entry: "c1ccc(CCCc2nc(-c3ccccc3)no2)cc1"
rule not met

A record lists "c1ccc(CCCc2nnc(Cc3ccccc3)o2)cc1" . Is its Activity below 30%?
rule not met

Lab log: compare recorded Activity with 30%; is it strictly lower for "c1ccc(CCCNc2nnc(-c3ccccc3)o2)cc1" ?
rule met

Please determine if "c1ccc(CCCc2nc(Cc3ccccc3)no2)cc1" is below 30% in terms of Activity.
rule not met

Does this compound meet the criterion Activity < 30%? "COC(=O)N1CCN(Cc2cccc(NC(=O)Nc3ccc(C)nc3)c2F)CC1"
rule not met
